# study.target: CDK1/Cyclin B1 (Homo sapiens, UniProt P06493)
# Sequence (P06493 whole entry): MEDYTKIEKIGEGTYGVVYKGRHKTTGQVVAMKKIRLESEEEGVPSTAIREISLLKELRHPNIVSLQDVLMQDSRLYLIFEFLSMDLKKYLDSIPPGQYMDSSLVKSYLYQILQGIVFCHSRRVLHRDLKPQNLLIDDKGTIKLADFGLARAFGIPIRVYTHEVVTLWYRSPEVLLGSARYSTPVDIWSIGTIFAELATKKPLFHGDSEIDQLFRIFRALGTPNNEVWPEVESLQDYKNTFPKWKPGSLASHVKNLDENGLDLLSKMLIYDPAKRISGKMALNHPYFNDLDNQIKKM
# Sequence (P14635 whole entry partner): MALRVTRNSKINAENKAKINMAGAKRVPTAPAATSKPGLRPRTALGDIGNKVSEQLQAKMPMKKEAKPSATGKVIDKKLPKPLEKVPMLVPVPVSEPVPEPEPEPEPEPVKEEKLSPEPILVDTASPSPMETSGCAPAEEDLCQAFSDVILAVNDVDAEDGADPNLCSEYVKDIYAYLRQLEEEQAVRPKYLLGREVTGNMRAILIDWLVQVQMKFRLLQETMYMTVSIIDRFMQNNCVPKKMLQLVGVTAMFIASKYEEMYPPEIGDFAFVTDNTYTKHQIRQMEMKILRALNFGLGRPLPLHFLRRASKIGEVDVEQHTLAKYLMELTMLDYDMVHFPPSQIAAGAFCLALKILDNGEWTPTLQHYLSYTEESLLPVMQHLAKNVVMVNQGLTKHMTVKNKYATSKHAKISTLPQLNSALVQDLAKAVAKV
# assay.name: CDK1/Cyclin B1 Biochemical Assay (TR-FRET), 0.015 mM ATP
# setup.conditions: 0.15 μM Rb (Ser780)-biotin substrate, pH7.0, 60 min preincubation, 120 min reaction, room temperature
# Procedure: CDK2/Cyclin E1 and CDK1/Cyclin B1 Biochemical Assays Compounds disclosed herein were tested for inhibition of CDK2/Cyclin E1 or CDK1/Cyclin B1 kinase in an assay based on the time-resolved fluorescence-resonance energy transfer (TR-FRET) methodology. […] Plates were incubated at room temperature for 60 minutes, and the TR-FRET signals (ex337 nm, em665 nm/620 nm) were recorded on a PHERAstar FSX plate reader (BMG Labtech). […]
readout: IC50 (nM)

- CCCNC(=O)O[C@H]1CC[C@@H](c2cc(Nc3ccc4c(c3F)C(C)NS4(=O)=O)n[nH]2)C1 (single isomer, unassigned) [Example 53c]: 686
- CC(C)NC(=O)O[C@H]1CC[C@@H](c2cc(Nc3ccc4c(c3F)CN(C3CCCC3)S4(=O)=O)n[nH]2)C1 (relative stereo): 1180
- [2H]C([2H])([2H])N1Cc2c(ccc(Nc3cc([C@@H]4CC[C@H](OC(=O)NC(C)C)C4)[nH]n3)c2F)S1(=O)=O (single isomer, unassigned) [Example 129b]: 185
- CC(C)NC(=O)O[C@H]1CC[C@@H](c2cc(Nc3ccc4c(c3F)CN(C3CCN(C)CC3)S4(=O)=O)n[nH]2)C1 (relative stereo): 758
- CC(C)NC(=O)O[C@H]1CC[C@@H](c2cc(Nc3ccc4c(c3F)CN(CC3CN(C)C3)S4(=O)=O)n[nH]2)C1 (relative stereo): 631
